Data origin, for the record: ChEMBL document CHEMBL1201862

- System: A498
- ASSAY METHOD TEXT: NCI tumour cell line growth inhibition, 48 h
The source made the active and inactive calls. Cut-off read from the data, not from the text of the source: active = GI50 up to about 1.1 µM and inactive = higher.
Field 'call' accepts active, inactive

Some entries whose results are on file:
COc1ccccc1NC(=S)N/N=C/c1c(C)n(C)n(-c2ccccc2)c1=O
inactive
CCCCCCCCCCCCCCCCOC(=O)c1cc(O)cc(C(=O)OCCCCCCCCCCCCCCCC)c1
inactive
S=c1sc2c(S)nc(S)nc2n1-c1ccccc1
inactive
CC(C)(C)OC(=O)/C=C/[C@@H](CCC(=O)/C=C/[C@H](/C=C\CCCC(=O)O)NC1(c2ccccc2)c2ccccc2-c2ccccc21)O[Si](C)(C)C(C)(C)C
inactive
O=C(CSc1nc2ccc(Cl)cc2c(=O)n1-c1ccccc1)N/N=C1\C(=O)Nc2ccc(F)cc21
inactive
CNC(=S)NNc1ncnc2c1c(-c1ccc(Cl)cc1)cn2-c1ccc(C)cc1
inactive
Cc1ccc(-c2nnc(CCCCCCCCc3nnc(-c4ccc(C)cc4O)n3N)n2N)c(O)c1
inactive
C#CC(O)/C=C/CCCCCCC#CC/C=C\CC#CCCCCCC/C=C/C(O)C#C (stereo not given)
inactive

INPUT: Each compound tested received a call. Report the one for `COc1ccc(/N=C/c2ccc(N(CCC#N)S(=O)(=O)c3ccccc3)cc2)cc1` .
OUTPUT: inactive

INPUT: Each compound tested received a call. Report the one for `CN(C)C/C=C(/c1ccc(Br)cc1)c1cccnc1` .
OUTPUT: inactive

INPUT: Each compound tested received a call. Report the one for `N=C(N)N/N=C/c1c(-c2ccc(Cl)c(Cl)c2Cl)nc2sccn12` .
OUTPUT: active

INPUT: Each compound tested received a call. Report the one for N#CC(NNC(=O)Cc1ccccc1)c1ccccc1O (stereo not given) .
OUTPUT: inactive

INPUT: Each compound tested received a call. Report the one for CCCCCCCC(CC(=O)NC(CO)C(=O)NC(CO)CC(C)C)OC(=O)CC(CCCCCCC)OC(=O)CC(CCCCCCC)OC1OC(C)C(O)C(OC2OC(C)C(O)C(O)C2OC(C)=O)C1O (stereo not given) .
OUTPUT: inactive

INPUT: Each compound tested received a call. Report the one for `O=S(=O)(O)c1ccc2c(/N=N/c3c(O)ccc4ccccc34)cccc2c1` .
OUTPUT: inactive

INPUT: Each compound tested received a call. Report the one for Cc1nc2c(Br)cc(Br)cc2c(=O)n1-c1ccccc1NC1OC(CO)C(O)C(O)C1O (stereo not given) .
OUTPUT: inactive

INPUT: Each compound tested received a call. Report the one for CC1=C(C(N)=O)C(c2ccncc2)C(C#N)C(=O)N1 (stereo not given) .
OUTPUT: inactive

INPUT: Each compound tested received a call. Report the one for `CO[C@@H]1O[C@H](C(=O)c2ccccc2)[C@H]2OC(C)(C)O[C@@H]12` .
OUTPUT: inactive

INPUT: Each compound tested received a call. Report the one for `CCOC(=O)c1c(C)n(CCN2CCN(C)CC2)c2ccc(OC)cc12` .
OUTPUT: inactive

INPUT: Each compound tested received a call. Report the one for Clc1ccc2c(c1)CC1C[N+]3=C(CCCCC3)C1=C2 (stereo not given) .
OUTPUT: inactive

INPUT: Each compound tested received a call. Report the one for `COc1ccc([C@H]2C=[N+]([O-])O[C@H](OC3CCCC3)[C@@H]2OC(C)=O)cc1OC` .
OUTPUT: inactive
